Test system: Peptostreptococcus stomatis
Assay: Antibacterial activity against Peptostreptococcus stomatis
Assay type: functional
Would you mind telling me the reported MIC50 of each entry?

Some solved cases for reference:
Molecule	MIC50
CCC[C@@H]1C[C@@H](C(=O)N[C@@H]([C@H]2O[C@H](SC)[C@H](O)[C@@H](O)[C@H]2O)[C@H](C)Cl)N(C)C1 [CLINDAMYCIN]	< 0.016 mg/L
Cc1ncc([N+](=O)[O-])n1CCO [METRONIDAZOLE]	< 0.016 mg/L
C[C@@H](O)[C@H]1C(=O)N2C(C(=O)O)=C(S[C@@H]3CN[C@H](C(=O)Nc4cccc(C(=O)O)c4)C3)[C@H](C)[C@H]12 [ERTAPENEM]	0.047 mg/L

Could you tell me MIC50 for each of these molecules? They are listed below.
1. CC[C@H]1OC(=O)[C@H](C)[C@@H](O[C@H]2C[C@@](C)(OC)[C@@H](O)[C@H](C)O2)[C@H](C)[C@@H](O[C@@H]2O[C@H](C)C[C@H](N(C)C)[C@H]2O)[C@](C)(O)C[C@@H](C)CN(C)[C@H](C)[C@@H](O)[C@]1(C)O [AZITHROMYCIN]
2. CO[C@@]1(NC(=O)Cc2cccs2)C(=O)N2C(C(=O)O)=C(COC(N)=O)CS[C@@H]21 [CEFOXITIN]
3. CC1(C)S[C@@H]2[C@H](NC(=O)[C@H](N)c3ccc(O)cc3)C(=O)N2[C@H]1C(=O)O [AMOXICILLIN]

Reply:
["0.19 mg/L", "0.064 mg/L", "< 0.016 mg/L"]

Ask: # input molecule: COc1c(N2C[C@@H]3CCCN[C@@H]3C2)c(F)cc2c(=O)c(C(=O)O)cn(C3CC3)c12 [MOXIFLOXACIN] ; wanted: its MIC50
Reply: 0.094 mg/L

Values were extracted from ChEMBL document CHEMBL1143851.
